From: patent US20170355757A1

experimentalTarget: human C5 (human, UniProt P01031 19-1676)
runDescription: cell-based or functional assay
readout: IC50, inhibition of CDC of Daudi cells, 1.66% human serum, 2 nM anti-CD20 antibody (nM)
Only the number, expressed in nM, is required.

**Query** Recorded IC50, inhibition of CDC of Daudi cells, 1.66% human serum, 2 nM anti-CD20 antibody of H4H12166P4 (antibody, human IgG4, V domains shown, histidine-mutated CDR variant of H4H12166P; human IgG4 (S108P)) VH: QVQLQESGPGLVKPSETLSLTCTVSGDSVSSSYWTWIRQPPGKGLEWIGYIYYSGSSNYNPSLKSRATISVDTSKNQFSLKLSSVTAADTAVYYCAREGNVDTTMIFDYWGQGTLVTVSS VL: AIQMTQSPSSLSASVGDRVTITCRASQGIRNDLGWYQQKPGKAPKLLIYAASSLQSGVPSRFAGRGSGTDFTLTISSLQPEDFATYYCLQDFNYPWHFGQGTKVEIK , please.
**Result** 3.5
